biological target: Gonadotropin-releasing hormone receptor (Rattus norvegicus) (UniProt P30969); assay: Agonist activity at LH-RH receptor in Sprague-Dawley rat pituitary gland assessed as change in luteinizing hormone release at 100 ug/ml incubated for 4 hrs measured every hour for 4 hrs by RIA
Sequence (P30969 whole entry): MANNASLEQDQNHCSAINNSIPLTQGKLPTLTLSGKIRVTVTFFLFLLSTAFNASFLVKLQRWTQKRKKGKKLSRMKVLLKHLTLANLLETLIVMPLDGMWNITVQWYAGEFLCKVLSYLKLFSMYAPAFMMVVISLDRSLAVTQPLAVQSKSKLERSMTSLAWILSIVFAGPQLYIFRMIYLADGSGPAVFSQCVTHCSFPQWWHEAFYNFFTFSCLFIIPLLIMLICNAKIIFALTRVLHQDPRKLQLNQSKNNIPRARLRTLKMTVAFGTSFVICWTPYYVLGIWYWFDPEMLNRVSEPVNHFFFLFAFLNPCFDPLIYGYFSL
Square brackets hold non-standard residues; d marks the D form. Peptide text beside a SMILES is read from it. pGlu = O=C1CC[C@@H](C(=O)O)N1
value.type: Activity (ng/mL)
Write the answer as a number in ng/mL, unit excluded.

Worked cases, answers included:
CCNC(=O)[C@@H]1CCCN1C(=O)[C@H](CCCNC(=N)N)NC(=O)[C@H](CC(C)C)NC(=O)[C@@H](C)NC(=O)[C@H](Cc1ccc(O)cc1)NC(=O)[C@H](CO)NC(=O)[C@H](C)NC(=O)[C@@H](NC(=O)[C@@H]1CCC(=O)N1)[C@@H](C)CC : 42
CCNC(=O)[C@@H]1CCCN1C(=O)[C@H](CCCNC(=N)N)NC(=O)[C@H](CC(C)C)NC(=O)[C@@H](C)NC(=O)[C@H](Cc1ccc(O)cc1)NC(=O)[C@H](CO)NC(=O)[C@H](C)NC(=O)[C@H](CC)NC(=O)[C@@H]1CCC(=O)N1 : -3
CC(C)C[C@H](NC(=O)CNC(=O)[C@H](Cc1ccc(O)cc1)NC(=O)[C@H](CO)NC(=O)[C@H](CC(C)C)NC(=O)[C@@H](NC(=O)[C@@H]1CCC(=O)N1)[C@@H](C)O)C(=O)N[C@@H](CCCNC(=N)N)C(=O)N1CCC[C@H]1C(=O)NCC(N)=O ([pGlu]TLSYGLRPG-NH2) : 14

Documented Activity of CC(C)C[C@H](NC(=O)CNC(=O)[C@H](Cc1ccc(O)cc1)NC(=O)[C@H](CO)NC(=O)[C@H](CO)NC(=O)[C@H](CC(C)C)NC(=O)[C@@H]1CCC(=O)N1)C(=O)N[C@@H](CCCNC(=N)N)C(=O)N1CCC[C@H]1C(=O)NCC(N)=O ([pGlu]LSSYGLRPG-NH2) : -7

Documented Activity of CC(C)C[C@H](NC(=O)CNC(=O)[C@H](Cc1ccc(O)cc1)NC(=O)[C@H](CO)NC(=O)[C@H](CC(N)=O)NC(=O)[C@H](CC(C)C)NC(=O)[C@@H]1CCC(=O)N1)C(=O)N[C@@H](CCCNC(=N)N)C(=O)N1CCC[C@H]1C(=O)NCC(N)=O ([pGlu]LNSYGLRPG-NH2) : 18

Documented Activity of CC(C)C[C@H](NC(=O)[C@@H]1CCC(=O)N1)C(=O)N[C@@H](C)C(=O)N[C@@H](CO)C(=O)N[C@@H](Cc1ccc(O)cc1)C(=O)N[C@H](C)C(=O)N[C@@H](CC(C)C)C(=O)N[C@@H](CCCNC(=N)N)C(=O)N1CCC[C@H]1C(=O)NCC(N)=O : 13

* * *

molecular target: Gonadotropin-releasing hormone receptor (Rattus norvegicus); assay: Antagonist activity at LH-RH receptor in Sprague-Dawley rat pituitary gland assessed as change in LH-RH-induced follicle-stimulating hormone release at 100 ug/ml preincubated for 2 hrs followed by LH-RH addition at 5th and 6th hr 5 mins post drug addition and measured every hour for 4 hrs by RIA
Square brackets hold non-standard residues; d marks the D form. Peptide text beside a SMILES is read from it. pGlu = O=C1CC[C@@H](C(=O)O)N1
Entries and their measured Activity follow.
Write the answer as a number in ng/mL, unit excluded.

CCNC(=O)[C@@H]1CCCN1C(=O)[C@H](CCCNC(=N)N)NC(=O)[C@H](CC(C)C)NC(=O)[C@@H](C)NC(=O)[C@H](Cc1ccc(O)cc1)NC(=O)[C@H](CO)NC(=O)[C@H](C)NC(=O)[C@@H](NC(=O)[C@@H]1CCC(=O)N1)[C@@H](C)CC : 1910

Documented Activity of CC(C)C[C@H](NC(=O)CNC(=O)[C@H](Cc1ccc(O)cc1)NC(=O)[C@H](CO)NC(=O)[C@H](CC(N)=O)NC(=O)[C@H](CC(C)C)NC(=O)[C@@H]1CCC(=O)N1)C(=O)N[C@@H](CCCNC(=N)N)C(=O)N1CCC[C@H]1C(=O)NCC(N)=O ([pGlu]LNSYGLRPG-NH2) : 2300
